Experiment summary: Pharmacokinetic study in mice (plasma, NCA)
Measurement conditions: mouse, intravenous, 4 nmol/kg, Vss, mouse plasma, 4 nmol/kg
Measurement type: Vd
Note: state the figure and append the unit.

Fill in the blank: the reported Vd of "CCCCCC(=O)N[C@H]1CSCc2cc(CSCCNC(=O)CN3CCN(CC(=O)O)CCN(CC(=O)O)CCN(CC(=O)O)CC3)cc(c2)CSC[C@@H](C(=O)O)NC(=O)[C@H](Cc2ccccc2)NC(=O)[C@H](CCC(N)=O)NC(=O)[C@H]([C@@H](C)O)NC(=O)[C@@H]2CCCN2C(=O)[C@@H]2CCCN2C1=O" is ____.
0.36 L/kg
